Assay: Acute toxicity (DL50)
Format: in vivo
Settings: in vivo, acute DL50
Measurement Type: LD50 (mg/kg)

{"columns": ["Molecular String", "Unit Of Measurement", "Value Observed"],
 "data": [
  ["C[C@]12CC[C@H]3[C@@H](CC=C4C[C@@H](O)CC[C@@]43C)[C@@H]1CC[C@@H]2NC(=O)N(CCCl)N=O", "mg/kg", 700]
]}

---

Test: Acute toxicity (DL50)
Format: in vivo
Settings: mouse, in vivo; derived from DL50 and optimal dose on L1210; read-out: Index thérapeutique
Measurement Type: selectivity ratio

{"columns": ["Molecular String", "Measurement Type", "Value Observed"],
 "data": [
  ["C[C@]12CC[C@H]3[C@@H](CC=C4C[C@@H](O)CC[C@@]43C)[C@@H]1CC[C@@H]2NC(=O)N(CCCl)N=O", "selectivity ratio", 5.6]
]}
